# Assay target: monoclonal antibody mAB 198
# Assay comment: peptide microarray, fluorescence, linear peptide

Binder	Reading unit	relative signal [%]
RHNPADY [RHNPADY, linear mimotope]	%	8.9
DVRLRFNPADY	%	10
SLRINPADY	%	11
LRWNPADYPGI	%	6.5

Data provenance: patent US20230381328A1
